Target: 72 kDa type IV collagenase (Homo sapiens, UniProt P08253)
Sequence (P08253 whole entry): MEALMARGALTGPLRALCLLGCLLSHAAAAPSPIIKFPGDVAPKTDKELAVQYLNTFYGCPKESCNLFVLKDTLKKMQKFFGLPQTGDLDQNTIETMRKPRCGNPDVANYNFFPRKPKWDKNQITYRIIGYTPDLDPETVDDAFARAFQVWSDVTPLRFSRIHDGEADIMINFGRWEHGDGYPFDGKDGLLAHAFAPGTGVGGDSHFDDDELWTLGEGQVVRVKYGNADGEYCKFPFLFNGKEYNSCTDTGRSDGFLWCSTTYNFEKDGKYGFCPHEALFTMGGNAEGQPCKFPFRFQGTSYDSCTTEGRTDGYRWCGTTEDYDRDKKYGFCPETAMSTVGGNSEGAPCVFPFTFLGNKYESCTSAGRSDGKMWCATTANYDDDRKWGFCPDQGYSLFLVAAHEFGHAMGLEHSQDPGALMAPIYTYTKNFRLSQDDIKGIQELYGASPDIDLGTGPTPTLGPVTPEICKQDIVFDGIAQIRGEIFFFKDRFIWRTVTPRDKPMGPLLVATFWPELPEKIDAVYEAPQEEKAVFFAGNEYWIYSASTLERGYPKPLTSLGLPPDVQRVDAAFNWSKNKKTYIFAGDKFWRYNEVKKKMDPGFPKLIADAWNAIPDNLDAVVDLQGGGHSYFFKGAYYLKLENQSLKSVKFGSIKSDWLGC
Class boundaries, taken from values of IC50, are as follows: bucket A (below 7 nM), bucket B (7 nM to below 30 nM), bucket C (30 nM or more)

Some solved cases for reference:
1. O=C(O)C(CCS(=O)(=O)Cc1ccccc1)NS(=O)(=O)c1ccc(-c2ccc(Br)cc2)cc1 (stereo not given); bucket A
2. CC(C)[C@H](NS(=O)(=O)c1ccc(-c2ccc(C#N)cc2)cc1)C(=O)O; bucket C
3. CC(C)[C@H](NS(=O)(=O)c1ccc(-c2ccc(F)cc2)cc1)C(=O)O; bucket C
4. CC(C)[C@H](NS(=O)(=O)c1ccc(-c2ccc(Br)cc2)cc1)C(=O)NO; bucket C

stdin: Hi, small favor: classify CC(C)[C@H](NS(=O)(=O)c1ccc(-c2ccc(C=O)cc2)cc1)C(=O)O by its IC50 when you get a moment.
stdout: bucket B

stdin: Entry CC(C)[C@H](NS(=O)(=O)c1ccc(-c2ccccc2)cc1)C(=O)O belongs to which category?
stdout: bucket C

stdin: Which of the defined bands does the recorded IC50 of O=C(O)CNS(=O)(=O)c1ccc(-c2ccc(Br)cc2)cc1 sit within?
stdout: bucket A

stdin: The entry to classify is O=C(O)[C@H](Cc1ccccc1)NS(=O)(=O)c1ccc(-c2ccc(Br)cc2)cc1 ; which class holds it?
stdout: bucket B

* * *

Form field: pIC50 (one value per entry).
Biological target: Matrilysin (Homo sapiens)
Sequence (P09237 whole entry): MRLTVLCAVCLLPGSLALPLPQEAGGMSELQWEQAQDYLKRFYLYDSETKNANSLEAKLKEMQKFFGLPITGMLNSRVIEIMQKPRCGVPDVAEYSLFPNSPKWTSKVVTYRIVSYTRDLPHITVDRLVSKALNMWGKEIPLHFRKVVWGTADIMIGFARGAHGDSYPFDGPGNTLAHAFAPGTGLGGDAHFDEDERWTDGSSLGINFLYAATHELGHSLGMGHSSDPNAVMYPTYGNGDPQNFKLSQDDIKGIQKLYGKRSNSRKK
# pIC50 = -log10(concentration in molar units)

Example cases with answers are listed next.
1) O=C(NCCCC[C@H](NS(=O)(=O)c1ccc(-c2ccc(Br)cc2)cc1)C(=O)O)OCc1ccccc1; 4.82
2) CC(C)[C@H](NS(=O)(=O)c1ccc(-c2ccc([N+](=O)[O-])cc2)cc1)C(=O)O; 5.25
3) COc1ccc(-c2ccc(S(=O)(=O)N[C@H](C(=O)O)C(C)C)cc2)cc1; 5.14

stdin: Field request: pIC50 | item: O=C(CCc1ccccc1)NCCCC[C@H](NS(=O)(=O)c1ccc(-c2ccc(Br)cc2)cc1)C(=O)O
stdout: 5.07

stdin: Need pIC50, item CC(C)[C@H](NS(=O)(=O)c1ccc(-c2ccc(C=O)cc2)cc1)C(=O)O
stdout: 5.35

stdin: Give the measured pIC50 of CC(C)[C@H](NS(=O)(=O)c1ccc(-c2ccc(Cl)cc2)cc1)C(=O)O .
stdout: 5.12

stdin: # input compound: O=C(O)C(CCSCc1ccccc1)NS(=O)(=O)c1ccc(-c2ccc(Br)cc2)cc1 (centres undefined) ; wanted: its pIC50
stdout: 4.44

stdin: Could you tell me which pIC50 is on file for CC(C)[C@H](NS(=O)(=O)c1ccc(-c2ccc(Br)cc2)cc1)C(=O)O ?
stdout: 5.14

stdin: I am curious: what pIC50 value has been reported for O=C(O)[C@H](Cc1ccccc1)NS(=O)(=O)c1ccc(-c2ccc(Br)cc2)cc1 ?
stdout: 4.00

stdin: Sample O=C(O)CNS(=O)(=O)c1ccc(-c2ccc(Br)cc2)cc1 — what was its pIC50?
stdout: 4.11

stdin: So what's the measured pIC50 for this one? CC(C)[C@H](NS(=O)(=O)c1ccc(-c2ccc(F)cc2)cc1)C(=O)O
stdout: 5.32

stdin: I would be grateful if you could share the reported pIC50 for CC(C)[C@@H](NS(=O)(=O)c1ccc(-c2ccc(Br)cc2)cc1)C(=O)O .
stdout: 4.96

stdin: For CC(C)[C@@H](NS(=O)(=O)c1ccc(-c2ccc(C#N)cc2)cc1)C(=O)O , what is its reported pIC50?
stdout: 4.72

stdin: Reported pIC50 for CC(C)C[C@H](NS(=O)(=O)c1ccc(-c2ccc(Br)cc2)cc1)C(=O)O : what is it?
stdout: 5.51

stdin: Entry under review: CC(C)[C@H](NS(=O)(=O)c1ccc(-c2ccc(C#N)cc2)cc1)C(=O)O . Reported pIC50?
stdout: 5.15

stdin: Which pIC50 reading was recorded for the compound O=C(O)C(CCS(=O)(=O)Cc1ccccc1)NS(=O)(=O)c1ccc(-c2ccc(Br)cc2)cc1 (centres undefined) ?
stdout: 4.82

stdin: // pIC50 lookup, key: CC(C)[C@H](NS(=O)(=O)c1ccc(-c2ccccc2)cc1)C(=O)O
stdout: 4.15

stdin: Endpoint output: pIC50 of O=C(CCc1ccccc1)NCCC[C@H](NS(=O)(=O)c1ccc(-c2ccc(Br)cc2)cc1)C(=O)O . Value?
stdout: 5.17

stdin: Look up pIC50: CC(C)[C@H](NS(=O)(=O)c1ccc(-c2cccc(F)c2)cc1)C(=O)O
stdout: 4.66

* * *

Biological target: UniProt P03956
Sequence (P03956 whole entry): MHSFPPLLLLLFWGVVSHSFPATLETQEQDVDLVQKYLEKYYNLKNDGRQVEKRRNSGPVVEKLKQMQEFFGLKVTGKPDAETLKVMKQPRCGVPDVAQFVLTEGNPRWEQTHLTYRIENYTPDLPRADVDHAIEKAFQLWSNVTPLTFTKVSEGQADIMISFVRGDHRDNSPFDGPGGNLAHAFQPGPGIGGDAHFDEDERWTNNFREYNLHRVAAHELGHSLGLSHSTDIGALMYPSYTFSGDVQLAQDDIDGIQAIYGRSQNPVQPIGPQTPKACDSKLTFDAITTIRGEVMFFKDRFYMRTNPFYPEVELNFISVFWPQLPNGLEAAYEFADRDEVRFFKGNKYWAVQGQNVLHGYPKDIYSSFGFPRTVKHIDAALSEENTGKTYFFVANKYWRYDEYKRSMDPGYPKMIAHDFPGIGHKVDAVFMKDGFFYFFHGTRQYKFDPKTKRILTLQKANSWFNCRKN
Test: In vitro inhibition of human recombinant matrix metalloprotease-1 (MMP-1)
pIC50: −log10 of the molar value.
Mark Condition not met for pIC50 values under 5, and Condition met for everything at or above.

Take a look at these entries with their results.
1) CC(C)[C@H](NS(=O)(=O)c1ccc(-c2ccc(Br)cc2F)cc1)C(=O)O; Condition met
2) CC(C)[C@@H](NS(=O)(=O)c1ccc(-c2ccc(C#N)cc2)cc1)C(=O)NO; Condition met
3) CC(C)[C@H](NS(=O)(=O)c1ccc(-c2ccccc2)cc1)C(=O)O; Condition met

stdin: Can CC(C)[C@@H](NS(=O)(=O)c1ccc(-c2ccc(Br)cc2)cc1)C(=O)NO be said to have pIC50 at or above 5?
stdout: Condition met

stdin: Reported pIC50 at or above 5? CC(C)[C@H](NS(=O)(=O)c1ccc(-c2ccc(C(F)(F)F)cc2)cc1)C(=O)O
stdout: Condition met

* * *

Experiment: Half life (t1/2) in rats following a single 5 mg/kg oral cassette gavage dose
Assay type: ADME, organism-based
Set-up: dose 5 mg/kg, route oral
Conditions: rat, in vivo
# strict inequality: half-life < 20 h yields fulfilled, everything else yields not fulfilled

Before answering, review these 8 worked examples.
1) Cc1ccc(-c2ccc(S(=O)(=O)N[C@H](C(=O)O)C(C)C)cc2)cc1; fulfilled
2) CC(C)[C@@H](NS(=O)(=O)c1ccc(Oc2ccccc2)cc1)C(=O)NO; fulfilled
3) C[C@H](NS(=O)(=O)c1ccc(-c2ccc(Br)cc2)cc1)C(=O)O; not fulfilled
4) CC(C)[C@@H](NS(=O)(=O)c1ccc(-c2ccc(Br)cc2)cc1)C(=O)O; not fulfilled
5) CC(C)[C@H](NS(=O)(=O)c1ccc(-c2ccc(Br)cc2F)cc1)C(=O)O; not fulfilled
6) CC(C)[C@H](NS(=O)(=O)c1ccc(-c2ccc(F)cc2)cc1)C(=O)O; not fulfilled
7) O=C(O)[C@H](Cc1ccccc1)NS(=O)(=O)c1ccc(-c2ccc(Br)cc2)cc1; not fulfilled
8) CC(C)[C@@H](NS(=O)(=O)c1ccc(-c2ccc(C#N)cc2)cc1)C(=O)O; fulfilled

Now for a further compound.
stdin: Take the compound O=C(O)CNS(=O)(=O)c1ccc(-c2ccc(Br)cc2)cc1 and say whether its half-life is less than 20 h.
stdout: fulfilled

* * *

Test: Pharmacokinetic parameters in rats following a single 5 mg/kg oral cassette gavage dose
Assay type: ADME, organism-based
Parameters: dose 5 mg/kg, route oral
Conditions: rat, in vivo, read-out: AUC 0-infinity
Attribute: AUC
Field note: include the unit after the figure.

Example entries begin here.
1. CC(C)[C@H](NS(=O)(=O)c1ccc(-c2ccc([N+](=O)[O-])cc2)cc1)C(=O)O; 586 µg·h/mL
2. CC(C)[C@@H](NS(=O)(=O)c1ccc(-c2ccc(Br)cc2)cc1)C(=O)O; 1380 µg·h/mL
3. CC(C)[C@@H](NS(=O)(=O)c1ccc(-c2ccc(C#N)cc2)cc1)C(=O)NO; 0.33 µg·h/mL

stdin: Request the reported AUC associated with CC(C)[C@H](NS(=O)(=O)c1ccc(-c2ccc(Br)cc2F)cc1)C(=O)O
stdout: 4040 µg·h/mL

stdin: Item O=C(O)C(CCSCc1ccccc1)NS(=O)(=O)c1ccc(-c2ccc(Br)cc2)cc1 (stereo unspecified) has what recorded AUC?
stdout: 132 µg·h/mL

stdin: Requested field: AUC. Item: O=C(O)C(CCS(=O)(=O)Cc1ccccc1)NS(=O)(=O)c1ccc(-c2ccc(Br)cc2)cc1 (stereo unspecified)
stdout: 2.73 µg·h/mL

stdin: Which AUC is listed for O=C(O)[C@H](Cc1ccccc1)NS(=O)(=O)c1ccc(-c2ccc(Br)cc2)cc1 ?
stdout: 465 µg·h/mL

stdin: Endpoint output: AUC of CC(C)[C@H](NS(=O)(=O)c1ccc(-c2ccccc2)cc1)C(=O)O . Value?
stdout: 3.6 µg·h/mL
